target: ScLsb1; assay: SPOT peptide array binding signal intensity (averaged, normalized) (arbitrary units (background-subtracted, floor 0; scale differs between SH3 domains)); higher = stronger binding of the SH3 domain to the peptide
# key: entry, value: SPOT peptide array binding signal intensity
reported endpoint: SPOT peptide array binding signal intensity

binder | censoring qualifier | result
SGVRLPAPPPPPRRG | = | 438
TSIEIPKRSPLRFTS | ≤ | 0
KIRRSSLMIPNPQQF | = | 20.5
TKIRRRPQQPLTDFT | = | 4.75
KNRKNLPTIPIRLSG | = | 462
VQPTAAPATPPRHIS | = | 14.5
LKVTPGRRAPTISKI | ≤ | 0
